Kindly state Drug loading concentration for each of the entries shown.
testDetails: Encapsulation rate, drug loading concentration and total RNA concentration detection (RiboGreen)
Type: physicochemical
conditionSet: LNP formulation of the named lipid
Put down the number, then write its unit next to it.

The measured Drug loading concentration associated with CCCCCCCCCCOC(=O)CCCN(CCCCCC(=O)OCC(CCCCCCCC)CCCCCCCC)CCN(CC)CCO [YK-208] reads 37.80 µg/mL

get_value(item= CCCCCCCCCCOC(=O)CCCN(CCCCCC(=O)OCC(CCCCCCCC)CCCCCCCC)CCN(C)CCNC [YK-221] , readout=Drug loading concentration) returns 31.46 µg/mL

Value of Drug loading concentration reported for the molecule CCCCCCCCCCCOC(=O)CCCCCN(CCCCCCCC(=O)OC(CCCCCCC)CCCCCCC)CCN(CC)CCO [YK-205] is 30.02 µg/mL

Lab note: measured Drug loading concentration of CCCCCCCCCCCOC(=O)CCCCCN(CCCCCCCC(=O)OC(CCCCCCC)CCCCCCC)CCN(C)CCO [YK-206] was 38.09 µg/mL
